# Test system: L1210 leukemia ip in BDF1 mice, survival T/C
# assay_remarks: NCI In Vivo Anticancer Drug Screen. Data for tumor model L1210 Leukemia (intraperitoneal) in B6D2F1 (BDF1) mice
# measurement_parameters: endpoint: mean survival time; dose: 100.0 mg/kg/injection; schedule: Q01DX001 (ip); vehicle: Klucel (hydroxypropylcellulose) (HPC); higher = longer survival
Inconclusive results and toxic doses are left out.

{"molecule": "O=C(NC1CCCCC1)c1ccc([N+](=O)[O-])cc1", "T/C": "104 % of control"}
{"molecule": "CCOC(=O)c1[nH]c(C)c(C(=O)OCC)c1-c1ccc(OC)cc1", "T/C": "100 % of control"}
{"molecule": "COc1ccccc1C(Cc1ccc(N2C(N)=NC(N)=NC2(C)C)cc1)C(=O)Nc1ccc(S(=O)(=O)F)cc1 (stereo unspecified)", "T/C": "101 % of control"}
{"molecule": "COc1ccc(/C=C/c2cnnc3ccccc23)cc1OC", "T/C": "113 % of control"}
{"molecule": "COS(=O)c1ccccc1C(=O)NOCc1ccccc1 (stereo unspecified)", "T/C": "100 % of control"}
{"molecule": "CSCC(NC(C)=O)C(=O)O (stereo unspecified)", "T/C": "98 % of control"}
{"molecule": "CC(C)N(C=O)c1ccc(C(=O)O)cc1", "T/C": "93 % of control"}
{"molecule": "Cc1cccc([N+](=O)[O-])c1-c1c(C)cccc1[N+](=O)[O-]", "T/C": "102 % of control"}
{"molecule": "CCOC(=O)CCc1c(C(=O)O)[nH]c(C(=O)OCC)c1C", "T/C": "98 % of control"}
{"molecule": "COc1cc2c(cc1C)OC(C)(CC(=O)O)C2 (stereo unspecified)", "T/C": "103 % of control"}
{"molecule": "Cc1ccc(-n2c(O)c(N=Nc3ccc(Br)cc3)c(=O)n(-c3ccccc3)c2=S)cc1", "T/C": "111 % of control"}
